Values from patent US20190202883A1

Biological target: T1, human GIPR (human, UniProt P48546 22-466)
T1 sequence (looked up): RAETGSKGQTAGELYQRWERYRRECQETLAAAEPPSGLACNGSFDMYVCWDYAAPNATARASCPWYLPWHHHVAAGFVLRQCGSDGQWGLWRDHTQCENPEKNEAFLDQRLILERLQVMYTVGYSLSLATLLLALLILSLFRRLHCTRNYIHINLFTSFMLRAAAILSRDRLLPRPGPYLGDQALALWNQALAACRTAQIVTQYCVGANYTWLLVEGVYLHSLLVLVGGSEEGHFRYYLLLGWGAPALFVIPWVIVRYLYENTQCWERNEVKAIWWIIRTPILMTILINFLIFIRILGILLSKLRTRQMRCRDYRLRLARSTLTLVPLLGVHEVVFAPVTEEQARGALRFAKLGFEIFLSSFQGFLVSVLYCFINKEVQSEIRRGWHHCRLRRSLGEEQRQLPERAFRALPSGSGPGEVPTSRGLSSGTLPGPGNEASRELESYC
Assay: cell-based or functional assay
Square brackets hold non-standard residues; d marks the D form. Side chains are listed from the residue outwards. αMeF = C[C@](N)(Cc1ccccc1)C(=O)O; Iva = CC[C@](C)(N)C(=O)O; Oda = not defined here; Aib = CC(C)(N)C(=O)O
// reported Agonist activity (EC50), Cre-luc reporter assay for each item listed
property.measured: Agonist activity (EC50), Cre-luc reporter assay (pM)

binder | assay.result
H-Y[Aib]EGT[αMeF]TSDK([Gly-Gly-Gly-Gly-Oda])SK[Aib]LDKQRQ[Iva]EFVRHLLNK[Aib]TRQRY-NH2 (reading uncertain; also: printed as H-Tyr-Aib-Glu-Gly-Thr-αMePhe-Thr-Ser-Asp-Lys(-Gly-Gly-Gly-Gly-Oda)-Ser-Lys-Aib-Leu-Asp-Lys-Gln-Arg-Gln-Iva-Glu-Phe-Val-Arg-His-Leu-Leu-Asn-Lys-Aib-Thr-Arg-Gln-Arg-Tyr-NH2) | 610
H-Y[Aib]EGT[αMeF]TSDK([Gly-Gly-Gly-Gly-Oda])[Aib]I[Aib]LEKQRQ[Iva]EFVRHLLNK[Aib]TRQRY-NH2 (reading uncertain; also: printed as H-Tyr-Aib-Glu-Gly-Thr-αMePhe-Thr-Ser-Asp-Lys(-Gly-Gly-Gly-Gly-Oda)-Aib-Ile-Aib-Leu-Glu-Lys-Gln-Arg-Gln-Iva-Glu-Phe-Val-Arg-His-Leu-Leu-Asn-Lys-Aib-Thr-Arg-Gln-Arg-Tyr-NH2) | 520
